target: human recombinant GABAAR containing α5β3γ2 subunits (benzodiazepine site) (Homo sapiens, UniProt P18507+P31644); construct: expressed in transfected cells; host or cells: mouse L(tk−) cells, dexamethasone-inducible vector pMSGneo; assay: In vitro radioligand binding assay (α5-GABAAR Ki); conditions: inhibition of [3H]Ro15-1788 binding, membranes of L(tk−) cells expressing human α5β3γ2; read-out: α5-GABAAR Ki
Sequence (P31644 32-462): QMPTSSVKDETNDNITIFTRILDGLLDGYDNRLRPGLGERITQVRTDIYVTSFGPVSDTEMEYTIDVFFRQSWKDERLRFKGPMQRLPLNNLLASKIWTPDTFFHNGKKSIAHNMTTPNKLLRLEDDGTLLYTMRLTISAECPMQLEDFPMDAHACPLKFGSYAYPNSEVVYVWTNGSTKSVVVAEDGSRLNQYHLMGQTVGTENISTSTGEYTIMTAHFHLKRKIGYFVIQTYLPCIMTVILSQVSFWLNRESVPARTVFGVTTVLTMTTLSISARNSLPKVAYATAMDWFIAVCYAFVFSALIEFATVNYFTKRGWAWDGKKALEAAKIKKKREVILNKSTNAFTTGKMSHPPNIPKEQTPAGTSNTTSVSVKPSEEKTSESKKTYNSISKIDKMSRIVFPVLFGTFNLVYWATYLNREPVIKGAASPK
Sequence (P28472 26-473 partner): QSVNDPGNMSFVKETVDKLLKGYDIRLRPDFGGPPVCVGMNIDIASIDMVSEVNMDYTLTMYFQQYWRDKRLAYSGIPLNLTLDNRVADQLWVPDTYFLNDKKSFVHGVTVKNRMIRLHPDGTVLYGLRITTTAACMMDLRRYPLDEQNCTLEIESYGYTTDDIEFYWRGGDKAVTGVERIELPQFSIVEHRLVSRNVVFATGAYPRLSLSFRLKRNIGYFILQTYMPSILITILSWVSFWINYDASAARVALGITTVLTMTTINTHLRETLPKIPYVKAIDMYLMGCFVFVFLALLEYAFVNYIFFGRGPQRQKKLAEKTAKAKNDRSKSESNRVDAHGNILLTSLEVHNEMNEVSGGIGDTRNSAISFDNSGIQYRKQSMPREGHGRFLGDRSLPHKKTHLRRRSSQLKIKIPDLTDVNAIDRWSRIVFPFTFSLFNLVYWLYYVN
Sequence (P18507 40-475): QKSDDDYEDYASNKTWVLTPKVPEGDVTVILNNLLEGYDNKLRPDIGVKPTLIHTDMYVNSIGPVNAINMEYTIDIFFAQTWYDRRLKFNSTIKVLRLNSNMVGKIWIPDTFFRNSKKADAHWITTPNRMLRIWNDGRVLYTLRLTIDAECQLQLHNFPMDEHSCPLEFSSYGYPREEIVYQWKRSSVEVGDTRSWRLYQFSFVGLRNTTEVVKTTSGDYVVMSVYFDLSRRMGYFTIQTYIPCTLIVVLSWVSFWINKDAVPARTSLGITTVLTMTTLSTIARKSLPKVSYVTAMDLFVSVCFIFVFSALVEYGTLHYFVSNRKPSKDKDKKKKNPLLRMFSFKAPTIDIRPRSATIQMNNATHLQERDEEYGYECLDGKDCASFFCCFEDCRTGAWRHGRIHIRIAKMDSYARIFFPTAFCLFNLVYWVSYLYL
Structures can show the parent of a compound that is named as a salt.
reported_property: Ki (nM)
Provide the reading as a plain figure in nM.

Exercise: Note down Ki recorded for COc1nc(-c2ncc[nH]2)ccc1NC(=O)c1c(-c2ccccc2)noc1C
Solution: 2.1

Exercise: Note down Ki recorded for Cc1onc(-c2ccccc2)c1C(=O)Nc1ccc(-n2ccnc2)[nH]c1=O
Solution: 313

Exercise: Note down Ki recorded for COc1nc(-c2ncn(C)n2)ccc1NC(=O)c1c(-c2ccccc2)noc1C
Solution: 20.5

Exercise: Note down Ki recorded for COc1nc(-c2cnc(NC3CNC3)nc2)ccc1NC(=O)c1c(-c2ccccc2)noc1C
Solution: 0.5

Exercise: Note down Ki recorded for COc1nc(-c2ccc(CO)nc2)cnc1NC(=O)c1c(-c2ccccc2)noc1C
Solution: 1.2

Exercise: Note down Ki recorded for COc1nc(-n2cnc(C(F)(F)F)c2)ccc1NC(=O)c1c(-c2ccccc2)noc1C
Solution: 5.7

Exercise: Note down Ki recorded for COc1nc(-c2ccncc2)ccc1NC(=O)c1c(-c2ccccc2)noc1C
Solution: 2.8

Exercise: Note down Ki recorded for Cc1onc(-c2ccccc2)c1C(=O)Nc1ccc(-c2cnc(CN)nc2)nc1OC(C)C [Example 207, hydrochloride]
Solution: 0.3

Exercise: Note down Ki recorded for COc1nc(-c2cnc(C(C)(C)O)nc2)ccc1NC(=O)c1c(-c2ccccc2)noc1C
Solution: 35.4

Exercise: Note down Ki recorded for COc1nc(-c2cnc3n2CCOC3)ccc1NC(=O)c1c(-c2ccccc2)noc1C
Solution: 0.8

Exercise: Note down Ki recorded for COc1nc(-c2ncnn2C)ccc1NC(=O)c1c(-c2ccccc2)noc1C
Solution: 9.8

Exercise: Note down Ki recorded for COc1nc(-c2cnc(N)nc2)ccc1NC(=O)c1c(-c2ccc(F)cc2)noc1C
Solution: 0.4

Exercise: Note down Ki recorded for COc1nc(-n2ccnc2)ccc1NC(=O)c1c(-c2ccc(F)cc2)noc1C
Solution: 1.9

Exercise: Note down Ki recorded for COc1nc(-c2ccc(CO)nc2)ccc1NC(=O)c1c(-c2ccccc2)noc1C
Solution: 2.3

Exercise: Note down Ki recorded for COc1nc(-c2ccc(NC(C)=O)nc2)ccc1NC(=O)c1c(-c2ccccc2)noc1C
Solution: 3.1

Exercise: Note down Ki recorded for COc1nc(-c2c[nH]c(=O)c(F)c2)ccc1NC(=O)c1c(-c2ccccc2)noc1C
Solution: 2.9

Exercise: Note down Ki recorded for COc1nc(-c2cncs2)ccc1NC(=O)c1c(-c2ccccc2)noc1C
Solution: 21.7

Exercise: Note down Ki recorded for COc1nc(-c2ccn3nc(N)nc3c2)ccc1NC(=O)c1c(-c2ccccc2)noc1C.Cl [Example 61, hydrochloride]
Solution: 1.4

Exercise: Note down Ki recorded for COc1nc(-c2ccc(CN)nc2)ccc1NC(=O)c1c(-c2ccccc2)noc1C.Cl [Example 199, hydrochloride]
Solution: 1.6

Exercise: Note down Ki recorded for Cc1onc(-c2ccccc2)c1C(=O)Nc1ccc(-c2cnoc2)nc1OC(C)C
Solution: 0.5

Exercise: Note down Ki recorded for COc1ccc(-c2cnc(NC(=O)c3c(-c4ccccc4)noc3C)c(OC)n2)cn1
Solution: 2.8

Exercise: Note down Ki recorded for COc1nc(-c2ccc3[nH]c(=O)n(C)c3c2)ccc1NC(=O)c1c(-c2ccccc2)noc1C
Solution: 16.1

Exercise: Note down Ki recorded for COc1nc(-n2cncc2CN(C)C)ccc1NC(=O)c1c(-c2ccccc2)noc1C
Solution: 1.7

Exercise: Note down Ki recorded for CCOc1ncc(-c2cnc(NC(=O)c3c(-c4ccccc4)noc3C)c(OC)n2)cn1
Solution: 2.9

Exercise: Note down Ki recorded for COc1nc(-c2cnn(-c3ccncc3)c2)ccc1NC(=O)c1c(-c2ccccc2)noc1C
Solution: 29.1

Exercise: Note down Ki recorded for COc1nc(-c2ccc3nncn3c2)ccc1NC(=O)c1c(-c2ccccc2)noc1C
Solution: 1.9

Exercise: Note down Ki recorded for COc1nc(-c2cncc(-n3cccn3)c2)ccc1NC(=O)c1c(-c2ccccc2)noc1C
Solution: 3.4

Exercise: Note down Ki recorded for COc1nc(-c2cncc(OC(F)F)c2)ccc1NC(=O)c1c(-c2ccccc2)noc1C
Solution: 5

Exercise: Note down Ki recorded for COc1nc(-c2ccc(OC(F)F)nc2)ccc1NC(=O)c1c(-c2ccccc2)noc1C
Solution: 26.6

Exercise: Note down Ki recorded for CCOC(=O)Cn1c(-c2ccc(NC(=O)c3c(-c4ccccc4)noc3C)c(OC)n2)cnc1C
Solution: 51.9

Exercise: Note down Ki recorded for COc1ncc(-c2ccc(NC(=O)c3c(-c4ccccc4)noc3C)c(OC)n2)cn1
Solution: 1.8

Exercise: Note down Ki recorded for CNc1ncc(-c2ccc(NC(=O)c3c(C)nnn3-c3ccccc3)c(OC)n2)cn1
Solution: 31

Exercise: Note down Ki recorded for COc1nc(-c2c[nH]c3ncccc23)ccc1NC(=O)c1c(-c2ccccc2)noc1C
Solution: 113

Cited source: patent US20240425491A1
